B1: Pistol ribozyme (parent)
chain: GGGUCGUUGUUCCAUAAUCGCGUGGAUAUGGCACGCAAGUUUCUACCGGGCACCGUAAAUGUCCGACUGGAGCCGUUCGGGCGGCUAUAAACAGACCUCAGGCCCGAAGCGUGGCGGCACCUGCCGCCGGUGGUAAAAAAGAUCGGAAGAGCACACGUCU

# Variants of: B1
# test_description: aptazyme ON/OFF ratio, guanine; higher = stronger switching; co-transcriptional cleavage with and without guanine
Quick reference for aptazyme ON/OFF ratio among some variants
endpoint_label: aptazyme ON/OFF ratio

• U8G G9C U10G U11G C12U C13U = 1.28
• U7A G9U U11A C12A C13U = 1.19
• U8A U10G U11C C12U C13A = 1.3
• U8G U10A U11A C12U C13G = 1.17
• U8G U11G C12A C13U = 1.21
• U7A U8G G9U U11C C13G = 1.06
• U10G U11G C12G = 1.4
• U7G U8C G9U U10G U11A C12G C13U = 1.25
• U7A U8C G9C U10A U11C C12G = 1.26
• U7A U8C G9C U11G C12A C13U = 1.11
• U7A U8G G9U U10A C12A C13U = 1.36
